# TGT: PSEN1-APH1B γ-secretase complex (Homo sapiens)
# Construct: expressed in transfected cells; host or cells: Psen1/2 double KO/Aph1ABC triple KO MEFs, pMSCV retroviral PSEN-IRES-APH1
# TEST DESCRIPTION: Aβ40 secretion by MEF cell line expressing only PSEN1-APH1B γ-secretase (APP-C99-GFP reporter)
# Format: cell-based
# EXPERIMENTAL PARAMETERS: 8 h, Beerse site unless otherwise indicated, read-out: IC50, Aβ40 peptides
pIC50: −log10 of the molar value.
pIC50 overview
PROPERTY: pIC50

[[record]]
molecule = "O=C1NCCCCC1N(Cc1ccc(Br)cc1)S(=O)(=O)c1ccc(Cl)cc1 (stereo not drawn) [ELN-318463]"
readout_value = 7.61

[[record]]
molecule = "CC(C)[C@H](O)C(=O)N[C@@H](C)C(=O)N[C@@H]1C(=O)N(C)CCc2ccccc21 [semagacestat]"
readout_value = 7.60

[[record]]
molecule = "O=C(O)CC[C@H]1CC[C@@](c2cc(F)ccc2F)(S(=O)(=O)c2ccc(Cl)cc2)CC1 [MK-0752]"
readout_value = 8.80


From: paper PMC10318456
